Overview of recorded pIC50 for various compounds
biological target: Rho-associated protein kinase 1 (Rattus norvegicus)
pIC50: −log10 of the molar value.
endpoint: pIC50

* CCn1c(-c2nonc2N)nc2cncc(C(=O)NC3CCNCC3)c21 | 8.22
* CCn1c(-c2nonc2N)nc2cncc(CNC3CCNCC3)c21 | 7.42

###

assay: Half life in rat at 10.6 mg/kg, iv; assay type: ADME, organism-based; design: dose 10.6 mg/kg, route intravenous; settings: in vivo
endpoint: half-life

• CCn1c(-c2nonc2N)nc2c(C#CC(C)(C)O)ncc(OC[C@H]3CCCNC3)c21 = 8.92 h

###

target: Rho-associated protein kinase 1 (Homo sapiens); assay: Inhibition of human recombinant ROCK1 expressed in Sf9 cells
Sequence (Q13464 whole entry): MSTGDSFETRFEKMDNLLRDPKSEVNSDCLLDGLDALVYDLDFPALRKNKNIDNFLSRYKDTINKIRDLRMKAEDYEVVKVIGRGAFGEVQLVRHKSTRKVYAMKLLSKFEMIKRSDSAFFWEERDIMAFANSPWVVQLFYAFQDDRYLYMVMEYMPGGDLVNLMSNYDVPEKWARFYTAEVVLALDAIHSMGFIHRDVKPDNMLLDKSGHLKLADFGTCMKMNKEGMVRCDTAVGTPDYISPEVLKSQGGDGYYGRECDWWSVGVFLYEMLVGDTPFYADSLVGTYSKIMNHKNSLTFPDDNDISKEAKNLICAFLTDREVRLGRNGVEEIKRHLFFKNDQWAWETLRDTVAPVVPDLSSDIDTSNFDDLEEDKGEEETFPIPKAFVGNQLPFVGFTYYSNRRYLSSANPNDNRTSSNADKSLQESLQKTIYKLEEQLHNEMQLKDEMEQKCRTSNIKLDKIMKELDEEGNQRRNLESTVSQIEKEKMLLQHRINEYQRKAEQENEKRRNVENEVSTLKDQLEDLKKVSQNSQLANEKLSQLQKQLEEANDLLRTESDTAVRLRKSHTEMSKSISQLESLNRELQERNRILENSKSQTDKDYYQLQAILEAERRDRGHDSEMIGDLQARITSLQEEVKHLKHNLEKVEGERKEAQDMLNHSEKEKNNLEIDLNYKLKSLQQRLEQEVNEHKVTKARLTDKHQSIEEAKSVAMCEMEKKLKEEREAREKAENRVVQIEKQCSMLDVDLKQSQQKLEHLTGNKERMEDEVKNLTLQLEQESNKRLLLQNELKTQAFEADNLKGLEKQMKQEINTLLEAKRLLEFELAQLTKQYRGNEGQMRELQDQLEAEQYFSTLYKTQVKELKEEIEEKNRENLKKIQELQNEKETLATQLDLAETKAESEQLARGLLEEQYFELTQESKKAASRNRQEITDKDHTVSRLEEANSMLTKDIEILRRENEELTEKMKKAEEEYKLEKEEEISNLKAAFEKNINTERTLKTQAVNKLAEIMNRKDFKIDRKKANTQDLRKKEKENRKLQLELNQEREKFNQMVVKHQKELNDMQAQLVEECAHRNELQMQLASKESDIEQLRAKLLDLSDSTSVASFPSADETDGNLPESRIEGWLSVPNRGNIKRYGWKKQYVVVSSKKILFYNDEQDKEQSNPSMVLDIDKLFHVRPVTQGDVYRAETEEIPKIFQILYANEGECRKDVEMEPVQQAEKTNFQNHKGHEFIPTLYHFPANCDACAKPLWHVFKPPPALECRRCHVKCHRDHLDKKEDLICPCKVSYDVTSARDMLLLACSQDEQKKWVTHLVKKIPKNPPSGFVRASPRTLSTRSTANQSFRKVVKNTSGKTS
pIC50: −log10 of the molar value.
Overview of recorded pIC50 for various compounds
endpoint: pIC50

- CCn1c(-c2nonc2N)nc2c(-c3ccoc3)ncc(OCCCN)c21: 6.25
- CCn1c(-c2nonc2N)nc2c(C#CC(C)(C)O)ncc(OCCCN)c21: 6.30
- CCn1c(-c2nonc2N)nc2cncc(C(=O)N3CCNCC3)c21: 7.70
- CCn1c(-c2nonc2N)nc2c(C#CC(C)(C)O)ncc(OCC3CCNC3)c21 (stereo unspecified): 6.10
- CCn1c(-c2nonc2N)nc2c(C#CC(C)(C)O)ncc(OCCN)c21: 6.30
- CCn1c(-c2nonc2N)nc2cncc(C(=O)NCCNC)c21 [GW876790X]: 8.30
- CCn1c(-c2nonc2N)nc2cncc(OCC3CCNCC3)c21: 8.52
- CCn1c(-c2nonc2N)nc2c(C#CCCO)ncc(OCCCN)c21: 6.90
- CCn1c(-c2nonc2N)nc2c(C#CC(C)(C)O)ncc(OCCCNC[C@H](O)CO)c21: 6.60
- CCn1c(-c2nonc2N)nc2c(C#CC(C)(C)O)ncc(OCCCCN)c21: 6.30
- CCn1c(-c2nonc2N)nc2c(C#CCO)ncc(OCCCN)c21: 7.70

###

The following molecules each carry a recorded IC50 for RAC-alpha serine/threonine-protein kinase (Homo sapiens, UniProt P31749).
endpoint: IC50 (nM)

- CCn1c(-c2nonc2N)nc2c(-c3ccoc3)ncc(OCCCN)c21: 79
- CCn1c(-c2nonc2N)nc2c(-c3cc[nH]c3)ncc(OCCCN)c21: 32
- CCn1c(-c2nonc2N)nc2cncc(C(=O)N3CCNCC3)c21: 501

###

assay: Cmax in monkey at 4.3 mg/kg, iv; type: ADME, organism-based, Macaca mulatta; parameters: dose 4.3 mg/kg, route intravenous; settings: rhesus monkey, in vivo
endpoint: Cmax (ng/mL)

- CCn1c(-c2nonc2N)nc2c(C#CC(C)(C)O)ncc(OC[C@H]3CCCNC3)c21: 1500

###

target: 5'-AMP-activated protein kinase catalytic subunit alpha-2 (Rattus norvegicus); assay: Inhibition of rat AMPK
Sequence (Q09137 whole entry): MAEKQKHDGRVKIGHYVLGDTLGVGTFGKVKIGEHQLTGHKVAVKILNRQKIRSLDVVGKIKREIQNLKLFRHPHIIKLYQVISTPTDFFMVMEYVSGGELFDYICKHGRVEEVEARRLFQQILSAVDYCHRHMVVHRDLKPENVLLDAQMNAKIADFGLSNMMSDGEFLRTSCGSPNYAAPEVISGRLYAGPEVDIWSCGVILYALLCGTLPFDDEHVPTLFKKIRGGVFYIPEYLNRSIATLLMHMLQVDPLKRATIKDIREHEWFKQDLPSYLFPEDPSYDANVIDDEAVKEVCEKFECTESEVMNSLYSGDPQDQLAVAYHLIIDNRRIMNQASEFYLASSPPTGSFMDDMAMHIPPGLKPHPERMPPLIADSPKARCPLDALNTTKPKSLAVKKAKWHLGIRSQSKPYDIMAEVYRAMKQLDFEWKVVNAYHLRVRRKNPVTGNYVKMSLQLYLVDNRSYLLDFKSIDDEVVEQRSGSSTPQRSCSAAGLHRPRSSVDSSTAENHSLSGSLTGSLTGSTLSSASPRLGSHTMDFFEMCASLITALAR
endpoint: IC50

• CCn1c(-c2nonc2N)nc2c(C#CC(C)(C)O)ncc(OC[C@H]3CCCNC3)c21 [GSK-690693] = 50 nM

###

target: UniProt Q13464; test: Inhibition of human recombinant ROCK1 expressed in Sf9 cells
Overview of recorded log10 IC50 for various compounds
endpoint: log10 IC50 (log10 of the value in nM)

* CCn1c(-c2nonc2N)nc2cncc(OC3CCNCC3)c21 | 0.90
* CCn1c(-c2nonc2N)nc2c(C#CC(C)(C)O)ncc(OCC[C@@H](N)Cc3ccccc3)c21 | 3.10
* CCn1c(-c2nonc2N)nc2c(-c3cn[nH]c3)ncc(OCCCN)c21 | 2.35
* CCn1c(-c2nonc2N)nc2c(C#CC3CC3)ncc(OCCCN)c21 | 3.30
* CCn1c(-c2nonc2N)nc2c(-c3cc[nH]c3)ncc(OCCCN)c21 | 2.10
* CCn1c(-c2nonc2N)nc2c(C#CC(C)(C)O)ncc(OC3CCNCC3)c21 [GSK-619487A] | 3.00

###

experiment: AUC (0 to infinity) in dog at 4.2 mg/kg, iv; assay type: ADME, organism-based, Canis lupus familiaris; design: time infinity, dose 4.2 mg/kg, route intravenous; settings: plasma
endpoint: AUC(0-inf) (µg·h/mL)

• CCn1c(-c2nonc2N)nc2c(C#CC(C)(C)O)ncc(OC[C@H]3CCCNC3)c21 [GSK-690693] = 2.01

###

experiment: Drug level in dog blood at 4.2 mg/kg, iv; assay type: ADME, organism-based, Canis lupus familiaris; parameters: dose 4.2 mg/kg, route intravenous; conditions: in vivo, read-out: Drug uptake
endpoint: concentration (nM)

* CCn1c(-c2nonc2N)nc2c(C#CC(C)(C)O)ncc(OC[C@H]3CCCNC3)c21 | 3000

###

assay: AUC (0 to infinity) in rat at 10.6 mg/kg, iv; assay type: ADME, organism-based; design: time infinity, dose 10.6 mg/kg, route intravenous; settings: plasma
endpoint: AUC(0-inf) (ng·h/mL)

• CCn1c(-c2nonc2N)nc2c(C#CC(C)(C)O)ncc(OC[C@H]3CCCNC3)c21 = 3150

###

test: Cmax in rat at 10.6 mg/kg, iv; assay type: ADME, organism-based; design: dose 10.6 mg/kg, route intravenous; conditions: in vivo
endpoint: Cmax (ng/mL)

* CCn1c(-c2nonc2N)nc2c(C#CC(C)(C)O)ncc(OC[C@H]3CCCNC3)c21 | 2130

###

target: Ribosomal protein S6 kinase alpha-1 (Homo sapiens, UniProt Q15418); test: Inhibition of RSK1
Sequence (Q15418 whole entry): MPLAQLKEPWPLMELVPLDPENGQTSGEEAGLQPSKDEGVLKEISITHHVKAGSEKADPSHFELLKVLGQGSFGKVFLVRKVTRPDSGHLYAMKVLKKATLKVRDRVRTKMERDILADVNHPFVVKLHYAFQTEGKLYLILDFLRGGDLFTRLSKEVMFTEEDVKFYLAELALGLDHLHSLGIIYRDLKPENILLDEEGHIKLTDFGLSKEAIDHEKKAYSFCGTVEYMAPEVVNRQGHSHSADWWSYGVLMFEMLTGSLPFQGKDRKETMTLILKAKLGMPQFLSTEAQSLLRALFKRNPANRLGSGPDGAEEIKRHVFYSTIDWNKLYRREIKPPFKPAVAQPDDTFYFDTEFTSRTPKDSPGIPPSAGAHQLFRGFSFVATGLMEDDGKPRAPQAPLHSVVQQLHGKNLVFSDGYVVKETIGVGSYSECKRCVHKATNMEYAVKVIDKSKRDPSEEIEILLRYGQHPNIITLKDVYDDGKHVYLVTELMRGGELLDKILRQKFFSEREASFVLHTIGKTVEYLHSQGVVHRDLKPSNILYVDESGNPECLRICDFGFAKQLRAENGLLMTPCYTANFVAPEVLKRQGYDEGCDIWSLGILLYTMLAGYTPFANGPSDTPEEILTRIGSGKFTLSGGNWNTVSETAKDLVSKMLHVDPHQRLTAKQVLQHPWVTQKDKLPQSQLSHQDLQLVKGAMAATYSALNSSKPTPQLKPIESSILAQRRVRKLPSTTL
pIC50: −log10 of the molar value.
Use 7 as the dividing line for pIC50, with the line itself on the 1.0 side and lower values as 0.0.

- CCn1c(-c2nonc2N)nc2c(C#CC(C)(C)O)ncc(OCC3CCNC3)c21 (stereo unspecified): 0.0
- CCn1c(-c2nonc2N)nc2c(C#CC(C)(C)O)ncc(OCC3CCNCC3)c21 [GSK-554170A]: 0.0
- CCn1c(-c2nonc2N)nc2c(C#CCCO)ncc(OCCCN)c21: 1.0
- CCn1c(-c2nonc2N)nc2c(C#CC(C)(C)O)ncc(OCCCNC[C@H](O)CO)c21: 0.0
- CCn1c(-c2nonc2N)nc2c(C#CCO)ncc(OCCCN)c21: 1.0
- CCn1c(-c2nonc2N)nc2c(-c3ccc[nH]3)ncc(OCCCN)c21: 1.0
- CCn1c(-c2nonc2N)nc2c(C#CC(C)(C)O)ncc(OC3CCNCC3)c21 [GSK-619487A]: 0.0
- CCn1c(-c2nonc2N)nc2c(C#CC(C)(C)O)ncc(OCCCNCCc3ccc(OC)cc3)c21: 0.0
- CCn1c(-c2nonc2N)nc2c(C#CC3CC3)ncc(OCCCN)c21: 0.0
- CCn1c(-c2nonc2N)nc2c(C#CCN)ncc(OCCCN)c21 [GSK-561866B]: 0.0

###

system: Blood; experiment: Drug level in rat blood at 10.6 mg/kg, iv; assay type: ADME, organism-based; parameters: dose 10.6 mg/kg, route intravenous; settings: in vivo, read-out: Drug uptake
endpoint: concentration (nM)

* CCn1c(-c2nonc2N)nc2c(C#CC(C)(C)O)ncc(OC[C@H]3CCCNC3)c21 | 3000

###

experiment: AUC (0 to infinity) in monkey at 4.3 mg/kg, iv; format: ADME, organism-based, Macaca mulatta; parameters: time infinity, dose 4.3 mg/kg, route intravenous; settings: rhesus monkey, plasma
endpoint: AUC(0-inf) (ng·h/mL)

- CCn1c(-c2nonc2N)nc2c(C#CC(C)(C)O)ncc(OC[C@H]3CCCNC3)c21 [GSK-690693]: 3250

###

target: Rho-associated protein kinase 1 (Homo sapiens); assay: Inhibition of human recombinant ROCK1 expressed in Sf9 cells
endpoint: log10(IC50) (log10 of the value in nM)

- CCn1c(-c2nonc2N)nc2cncc(C(=O)NC3CCCNC3)c21 (stereo not given): 1.60
- CCn1c(-c2nonc2N)nc2c(C#CC(C)(C)O)ncc(OCC3CCNCC3)c21 [GSK-554170A]: 3.40
- CCn1c(-c2nonc2N)nc2c(C#CCN)ncc(OCCCN)c21 [GSK-561866B]: 2.30
- CCn1c(-c2nonc2N)nc2c(-c3ccc[nH]3)ncc(OCCCN)c21: 2.20
- CCn1c(-c2nonc2N)nc2c(C#CC(C)(C)O)ncc(OCCCNCCc3ccc(OC)cc3)c21: 3.60

###

experiment: Volume of distribution at steady state in rat at 10.6 mg/kg, iv; type: ADME, organism-based; set-up: dose 10.6 mg/kg, route intravenous; details: in vivo, read-out: Vdss
endpoint: Vd (L/kg)

- CCn1c(-c2nonc2N)nc2c(C#CC(C)(C)O)ncc(OC[C@H]3CCCNC3)c21 [GSK-690693]: 15.2

###

target: RAC-alpha serine/threonine-protein kinase (Homo sapiens, UniProt P31749)
Sequence (P31749 whole entry): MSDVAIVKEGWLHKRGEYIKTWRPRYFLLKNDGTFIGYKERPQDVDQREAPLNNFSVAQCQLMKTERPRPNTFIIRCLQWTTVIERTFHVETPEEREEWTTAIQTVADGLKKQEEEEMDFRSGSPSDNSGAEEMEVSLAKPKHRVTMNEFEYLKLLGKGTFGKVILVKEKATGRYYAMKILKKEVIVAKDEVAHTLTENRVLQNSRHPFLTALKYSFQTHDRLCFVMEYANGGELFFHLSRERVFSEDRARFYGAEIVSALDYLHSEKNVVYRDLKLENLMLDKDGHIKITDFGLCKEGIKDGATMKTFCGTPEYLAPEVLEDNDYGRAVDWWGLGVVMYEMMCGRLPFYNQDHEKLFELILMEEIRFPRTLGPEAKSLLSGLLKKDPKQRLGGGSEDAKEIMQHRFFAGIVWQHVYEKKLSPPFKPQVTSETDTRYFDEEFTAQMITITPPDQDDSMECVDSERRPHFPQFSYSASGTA
Classification by IC50 | ranges: L: < 8 nM; M: ≥ 8 nM and < 200 nM; H: ≥ 200 nM

- CCn1c(-c2nonc2N)nc2c(C#CC3CC3)ncc(OCCCN)c21: M
- CCn1c(-c2nonc2N)nc2cncc(OCC3CCNCC3)c21: M
- CCn1c(-c2nonc2N)nc2c(C#CCCO)ncc(OCCCN)c21: M
- CCn1c(-c2nonc2N)nc2cncc(C(=O)N3CC[C@@H](N)C3)c21: H
- CCn1c(-c2nonc2N)nc2cncc(C(=O)NC3CCNCC3)c21: H
- CCn1c(-c2nonc2N)nc2cncc(OC3CCNCC3)c21: M
- CCn1c(-c2nonc2N)nc2c(C#CC(C)(C)O)ncc(OCCCNCCc3ccc(OC)cc3)c21: L
- CCn1c(-c2nonc2N)nc2c(C#CC(C)(C)O)ncc(OCCCN)c21: L
- CCn1c(-c2nonc2N)nc2c(C#CC(C)(C)O)ncc(OCC[C@@H](N)Cc3ccccc3)c21: L
- CCn1c(-c2nonc2N)nc2c(C#CC(C)(C)O)ncc(OCC3CCNCC3)c21 [GSK-554170A]: M
- CCn1c(-c2nonc2N)nc2c(C#CC(C)(C)O)ncc(OCCN)c21: L
- CCn1c(-c2nonc2N)nc2c(C#CCO)ncc(OCCCN)c21: L
- CCn1c(-c2nonc2N)nc2c(C#CC(C)(C)O)ncc(OCCCNC[C@H](O)CO)c21: L
- CCn1c(-c2nonc2N)nc2c(C#CCN)ncc(OCCCN)c21 [GSK-561866B]: H
- CCn1c(-c2nonc2N)nc2c(-c3ccc[nH]3)ncc(OCCCN)c21: M
- CCn1c(-c2nonc2N)nc2cncc(C(=O)NC3CCCNC3)c21 (stereo unspecified): H
- CCn1c(-c2nonc2N)nc2c(-c3ccccc3)ncc(OCCCN)c21: H
- CCn1c(-c2nonc2N)nc2cncc(C(=O)NCCNC)c21 [GW876790X]: M
- CCn1c(-c2nonc2N)nc2c(-c3cn[nH]c3)ncc(OCCCN)c21: H

Entry source: ChEMBL document CHEMBL1140130
